Recorded filipin (z-score) values for a group of molecules are listed next.
Tested on: A431
EXPERIMENTAL DETAILS: filipin (cholesterol) integrated intensity within LBPA endosomes, Z-score; higher = more cholesterol in LBPA endosomes
CONDITION SET: compound concentration in added solution (µM; 5 µl added to 20 µl cells): 10; 18 h
Where a name gives a salt, the structure may show the parent alone.
Write the value as a bare number.

Below, 2 molecules whose answers are already recorded.
- MOLECULE: "Cc1cc(C(C)(C)C)cc(C)c1CC1=NCCN1 [Xylometazoline hydrochloride]"
  EXPERIMENTAL VALUE: 0.0924
- MOLECULE: "C[C@H]1c2cccc(O)c2C(=O)C2=C(O)[C@]3(O)C(=O)C(C(N)=O)=C(O)[C@@H](N(C)C)[C@@H]3[C@@H](O)[C@@H]21 [Doxycycline hydrochloride]"
  EXPERIMENTAL VALUE: -0.531

In the following, a different molecule is considered.
[ask] Looking for the measured filipin (z-score) of COc1ccccc1N1CCN(CCCCNC(=O)c2ccc3ccccc3c2)CC1 , can you help?
[reply] 2.37

These measurements were taken from the supplement of paper PMC6607015.
